# Tgt: AcerOBP11m-Ile140 (Ile140Gly mutant) (Apis cerana, UniProt S5CRW7, I140G)
# Sequence (S5CRW7 1-142 I140G): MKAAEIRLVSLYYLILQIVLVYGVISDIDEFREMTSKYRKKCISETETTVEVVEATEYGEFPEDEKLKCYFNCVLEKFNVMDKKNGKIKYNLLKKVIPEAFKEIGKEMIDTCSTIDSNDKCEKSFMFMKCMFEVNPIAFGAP
# Experiment Summary: Fluorescence competitive binding assay with 1-NPN, mutant AcerOBP11m-Ile140
# Condition Set: AcerOBP11m-Ile140, Table S4, mean ± SE; read-out: [IC50]
Parameter: pIC50
Just the number, please; pIC50 means minus log10 of the concentration in mol/L.

* CCCCCCCCCCCCCCCC(=O)OCC [Ethyl palmitate] | 4.78

Kindly consider the entry below.
Short answer for CCCCCCO : pIC50 was 4.93

* * *

# Tgt: recombinant AcerOBP11 (Apis cerana)
# Sequence (S5CRW7 entry or part of it): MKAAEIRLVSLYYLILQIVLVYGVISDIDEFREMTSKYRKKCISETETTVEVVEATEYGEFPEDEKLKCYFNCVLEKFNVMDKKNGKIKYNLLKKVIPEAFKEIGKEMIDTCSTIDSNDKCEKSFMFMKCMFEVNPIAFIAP
# Experiment Summary: biochemical
# Assay type: binding
# Condition Set: KD, calculated from IC50, KD = [IC50]/(1+[1-NPN]/K1-NPN); Table 1
# Description: The interactions were monitored by recording 1-NPN fluorescence upon addition of 1-NPN aliquots with excitation wavelength of 337 nm, and emission wavelength of 350–450 nm, where the slit was 5 nm. […] The fluorescence intensities at the maximum of emission wavelength (400~410 nm) were recorded to calculate Scatchard plots. The dissociation constant of the protein/1-NPN complex (K1−NPN) was calculated from Scatchard plots and applied in the equation below to estimate ligand binding affinity. […]
Kd under 4 µM gets satisfied, anything at or over 4 µM gets not satisfied.

Q) Is it true that Kd reported for CC(C)=CCC/C(C)=C/CO is less than 4 µM?
A) not satisfied

Q) Does the reported Kd of CC(=O)/C=C/C1=C(C)CCCC1(C)C stay below 4 µM?
A) satisfied

Q) Hi there! Is Kd for CCCCCCO below 4 µM, do you know?
A) satisfied

Q) Identify whether the compound CC(C)=CCC/C(C)=C/CC/C(C)=C/CO records Kd below 4 µM.
A) not satisfied
